- assay-protocol: protein stability index of a GFP-peptide fusion (GPS, HEK-293T) (PSI 1-6); higher = more stable;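 also: 24-mer peptide tiles fused after GFP, lentivirally expressed, FACS-sorted into six equal bins by GFP/DsRed ratio, decoded by Illumina sequencing, PSI is the read-weighted mean bin number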
- settings: treatment: DMSO; c terminus: a fixed tail appended
metric: protein stability index

>>> df
                    monomer_sequence                   metric  recorded_number
0  GVIDLFGDAFGSSASEPQPASQAA [SNAP91]  protein stability index             3.98
1  VGGEAVEVEEVENVQTEFPGEDEN [TRIM55]  protein stability index             5.74
2    RMPDEDSKIDHYVLEYRRTNFEGP [FSD1]  protein stability index             3.78
3    ASLNIKTTVPEVEPPQDSHSRKTV [PRPH]  protein stability index             5.21
4   LRYQFSRPGPQSVPLQLSAHWQCG [FCHO1]  protein stability index              2.2
5   VSSAVSPSIIPQEDPSQQFLQQSL [INTS4]  protein stability index              4.2
6  CSSARHPAWGHCFYRLYQDLETHR [SCNN1D]  protein stability index             2.15
